Reference source: patent US20170081368A1

Molecular target: human Oxytocin (OTR) receptor (Homo sapiens, UniProt P30559)
Construct: expressed in transfected cells
Sequence (P30559 whole entry): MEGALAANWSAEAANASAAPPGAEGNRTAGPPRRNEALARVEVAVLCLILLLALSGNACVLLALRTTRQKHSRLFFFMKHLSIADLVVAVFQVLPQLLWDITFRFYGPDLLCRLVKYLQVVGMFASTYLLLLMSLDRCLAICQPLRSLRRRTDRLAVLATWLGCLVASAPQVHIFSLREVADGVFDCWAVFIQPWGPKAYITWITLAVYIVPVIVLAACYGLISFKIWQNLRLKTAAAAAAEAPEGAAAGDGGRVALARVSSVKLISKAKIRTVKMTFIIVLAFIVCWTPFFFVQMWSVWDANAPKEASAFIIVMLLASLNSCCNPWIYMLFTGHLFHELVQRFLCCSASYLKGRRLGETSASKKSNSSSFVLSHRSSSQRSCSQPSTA
Test: Calcium flux assay (FLIPR) in CHO cells expressing human OTR
Assay type: cell-based
Details: CHO; maximum response normalized to endogenous full agonist = 100%; read-out: hOT efficacy
Text: Chines Hamster Ovary (CHO) cells were transfected with expression plasmids encoding either the human Vla, the human Oxytocin (OTR) or the humanV2 receptor, the later in combination with the chimeric Gqs5 G protein to redirect the signal to Calcium flux. […] Calcium Flux Assays Using Fluorescent Imaging (Fluorometric Imaging Plate Reader, FLIPR) […]
Where a SMILES comes first, the peptide text is derived from it.
Exercise: for every item that follows, state its recorded Emax.
Please give the number followed by its unit.

I have this compound here, CC[C@H](C)[C@@H]1NC(=O)[C@H](Cc2ccc(O)cc2)NC(=O)CCS(=O)(=O)CC[C@@H](C(=O)N2C[C@H](O)C[C@H]2C(=O)N[C@@H](CC(C)C)C(=O)NCC(N)=O)NC(=O)[C@H](CC(N)=O)NC(=O)[C@H](CCC(N)=O)NC1=O [Example 8] (HELM PEPTIDE1{Y.I.Q.N.[O=C([C@H](CCS(=O)(=O)CCC(=O)[*:3])N[*:1])[*:2]].[Hyp].L.G.[am]}$PEPTIDE1,PEPTIDE1,1:R1-5:R3$$$V2.0) , and I need its recorded Emax.
129%

Bench note: what Emax did CC[C@H](C)[C@@H]1NC(=O)[C@H](Cc2ccc(O)cc2)NC(=O)CCS(=O)(=O)CC[C@@H](C(=O)N2CCC[C@H]2C(=O)N[C@@H](CC(C)C)C(=O)NCC(N)=O)NC(=O)[C@H](CC(N)=O)NC(=O)[C@H](CCC(N)=O)NC1=O [Example 1] (HELM PEPTIDE1{Y.I.Q.N.[O=C([C@H](CCS(=O)(=O)CCC(=O)[*:3])N[*:1])[*:2]].P.L.G.[am]}$PEPTIDE1,PEPTIDE1,1:R1-5:R3$$$V2.0) show?
120%

Request the reported Emax associated with CC[C@H](C)[C@@H]1NC(=O)[C@H](Cc2ccc(O)cc2)NC(=O)CCS(=O)(=O)CC[C@@H](C(=O)N(C)CC(=O)N[C@@H](Cc2ccccc2)C(=O)NCC(N)=O)NC(=O)[C@H](CC(N)=O)NC(=O)[C@H](CCC(N)=O)NC1=O [Example 16] (HELM PEPTIDE1{Y.I.Q.N.[O=C([C@H](CCS(=O)(=O)CCC(=O)[*:3])N[*:1])[*:2]].[Sar].F.G.[am]}$PEPTIDE1,PEPTIDE1,1:R1-5:R3$$$V2.0)
104%

Would you mind telling me what Emax value was observed for CC[C@H](C)[C@@H]1NC(=O)[C@H](Cc2ccc(O)cc2)NC(=O)CCS(=O)(=O)CC[C@@H](C(=O)N2CCCC[C@H]2C(=O)N[C@@H](CC(C)C)C(=O)NCC(N)=O)NC(=O)[C@H](CC(N)=O)NC(=O)[C@H](CCC(N)=O)NC1=O [Example 5] (HELM PEPTIDE1{Y.I.Q.N.[O=C([C@H](CCS(=O)(=O)CCC(=O)[*:3])N[*:1])[*:2]].[O=C([C@@H]1CCCCN1[*:1])[*:2]].L.G.[am]}$PEPTIDE1,PEPTIDE1,1:R1-5:R3$$$V2.0) ?
130%
